- MEASURED_ON: Mre11 WT (in MRNBD);Rad50NBD (Pyrococcus furiosus;Pyrococcus furiosus, UniProt Q8U1N9;P58301 1-426;1-195+709-882, |internal_change)
- TEST_PROTOCOL: fluorescence polarization
RESULT_TYPE: pKd
Please express pKd as -log10 of the molar concentration.

Fill in pKd for record FAM 40-mer dsDNA (dsDNA) DNA 1: GTGTTCGGACTCTGCCTCAAGACGGTAGTCAACGTGCTTG DNA 2: CAAGCACGTTGACTACCGTCTTGAGGCAGAGTCCGAACAC 5.85

Origin of the recorded values: paper PMC7231638
